Test system: CD34^+CD38^− cells
PROTOCOL_DETAILS: Expansion of CD34+CD38− cells from human cord blood-derived CD34+ cells (Example 2)
Format: cell-based
CONDITION: Homo sapiens, 168 h, 1 μg/mL compound, 50 ng/mL SCF, StemSpan SFEM, 7 days; based on number of CD34+CD38− cells in the absence of compound; read-out: Expansion efficiency
Assignment: determine reported fold induction at 1 µg/mL for the given molecules.

Q: Identify the reported fold induction at 1 µg/mL for the following entry. `C/C(=N\NC(=O)c1ccc(C(=O)NCc2cc[n+]([O-])cc2)s1)c1csc(-c2ccc(C(F)(F)F)cc2)c1O`
A: 5 to 10

Q: For the molecule `C/C(=N\NC(=O)c1ccc(C(=O)NCc2ccc(C(N)=O)cc2)s1)c1csc(-c2ccc(C(C)(C)C)cc2)c1O` , give its reported fold induction at 1 µg/mL.
A: ≥ 10

Q: Tell me its fold induction at 1 µg/mL given `C/C(=N\NC(=O)c1ccc(C(=O)NCc2ncccn2)s1)c1csc(-c2ccc(Cl)c(Cl)c2)c1O` as the entry.
A: ≥ 10

Q: Write down fold induction at 1 µg/mL measured for item `C/C(=N\NC(=O)c1ccc(C(=O)NCc2cn(C)cn2)s1)c1csc(-c2ccc(Cl)cc2)c1O`
A: ≥ 10

Q: Using known records, supply fold induction at 1 µg/mL for `C/C(=N\NC(=O)c1ccc(C(=O)NCCCN2CCOCC2)s1)c1csc(-c2ccc(Br)cc2)c1O`
A: 5 to 10

Q: Identify fold induction at 1 µg/mL associated with the molecule `COc1ccc(-c2scc(/C(C)=N/NC(=O)c3ccc(C(=O)NCc4cccc(C(N)=O)c4)s3)c2O)cc1`
A: ≥ 10

Q: Report fold induction at 1 µg/mL for `CNC(=O)c1ccc(CNC(=O)c2ccc(C(=O)N/N=C(\C)c3csc(-c4ccc(Cl)cc4)c3O)s2)cc1`
A: ≥ 10

----------
Test system: CD34^+CD38^− cells
PROTOCOL_DETAILS: Expansion of CD34+CD38− cells from human cord blood-derived CD34+ cells (Example 2)
Format: cell-based
CONDITION: Homo sapiens, 168 h, 1 μg/mL compound, 50 ng/mL SCF, StemSpan SFEM, 7 days; based on number of CD34+CD38− cells in the absence of compound; read-out: Expansion efficiency
ASSAY_ENDPOINT: fold induction at 1 µg/mL

Q: Please supply the value of reported fold induction at 1 µg/mL for the item C/C(=N\NC(=O)c1ccc(C(=O)NC(C)c2ccc(C(N)=O)cc2)s1)c1csc(-c2ccc(Br)cc2)c1O (stereo not drawn) [compound 115]
A: ≥ 10

Q: Quickly give me recorded fold induction at 1 µg/mL for C/C(=N\NC(=O)c1ccc(C(=O)NCc2cc(C)n(C)n2)s1)c1csc(-c2ccc(C(F)(F)F)cc2)c1O [compound 56]
A: 5 to 10

Q: Quick one: give measured fold induction at 1 µg/mL for C/C(=N\NC(=O)c1ccc(C(=O)NCc2cccnn2)s1)c1csc(-c2ccc(Cl)c(Cl)c2)c1O [compound 44]
A: 5 to 10

----------
System: CD34^+CD38^− cells
PROTOCOL_DETAILS: Expansion of CD34+CD38− cells from human cord blood-derived CD34+ cells (Example 2)
Format: cell-based
CONDITION: Homo sapiens, 168 h, 1 μg/mL compound, 50 ng/mL SCF, StemSpan SFEM, 7 days; based on number of CD34+CD38− cells in the absence of compound; read-out: Expansion efficiency
Assignment: determine reported fold induction at 1 µg/mL for the given molecules.

Q: Assign fold induction at 1 µg/mL to the following record: `C/C(=N\NC(=O)c1ccc(C(=O)NCc2cncn2C)s1)c1csc(-c2ccc(Cl)c(Cl)c2)c1O`
A: 5 to 10

Q: Return reported fold induction at 1 µg/mL. Input molecule: `CCNC(=O)c1ccc(C(=O)N/N=C(\C)c2csc(-c3ccc(Cl)c(Cl)c3)c2O)s1`
A: 5 to 10

Q: Specify fold induction at 1 µg/mL for `C/C(=N\NC(=O)c1ccc(C(=O)NCc2cc(C)n(C)n2)s1)c1csc(-c2ccc(Br)cc2)c1O` and stop.
A: ≥ 10

Q: Return fold induction at 1 µg/mL (reported value) for this molecule: `C/C(=N\NC(=O)c1ccc(C(=O)NCc2cccs2)s1)c1csc(-c2ccc(Cl)c(Cl)c2)c1O`
A: 5 to 10
